ASSAY SUMMARY: In vitro half-life in plasma
Format: in vitro ADME
EXPERIMENTAL PARAMETERS: in plasma; read-out: in vitro T1/2
MEASUREMENT NAME: half-life

Notebook: CCN(CC)CCOC(=O)C(C)c1ccc(CC(C)C)cc1 (stereo not shown) , half-life read as ~4 min

* * *

ASSAY SUMMARY: Phase 1 clinical study: plasma pharmacokinetics of prodrug and ibuprofen
Format: in vivo, human
EXPERIMENTAL PARAMETERS: human, plasma, topical, 70 mg, Day 12; 70 mg b.i.d. spray; read-out: prodrug Cmax
MEASUREMENT NAME: Cmax (ng/mL)
State just the number; it will be interpreted in ng/mL.

Notebook: CCN(CC)CCOC(=O)C(C)c1ccc(CC(C)C)cc1 (stereo not shown) , Cmax read as 0.185

* * *

ASSAY SUMMARY: 28-day GLP repeated dermal dose toxicity and toxicokinetics study
Design: species or system Rats
EXPERIMENTAL PARAMETERS: rat, in vivo; ulcers at application site at ≥100 mg/kg/day; read-out: local NOAEL
MEASUREMENT NAME: NOAEL at 28 days

Notebook: CCN(CC)CCOC(=O)C(C)c1ccc(CC(C)C)cc1 (stereo not shown) , NOAEL at 28 days read as 25 mg/kg/day

* * *

ASSAY SUMMARY: Phase 1 clinical study: plasma pharmacokinetics of prodrug and ibuprofen
Format: in vivo, human
EXPERIMENTAL PARAMETERS: human, plasma, topical or ocular, 70 mg, Day 1; 70 mg topical; read-out: prodrug Cmax, geometric mean
MEASUREMENT NAME: Cmax (ng/mL)
State just the number; it will be interpreted in ng/mL.

Notebook: CCN(CC)CCOC(=O)C(C)c1ccc(CC(C)C)cc1.Cl (stereo not shown) , Cmax read as 0.138

* * *

ASSAY SUMMARY: Phase 1 clinical study: plasma pharmacokinetics of prodrug and ibuprofen
Assay type: in vivo, human
EXPERIMENTAL PARAMETERS: human, plasma, topical, 70 mg, Day 1; 70 mg spray; read-out: prodrug Cmax
MEASUREMENT NAME: Cmax (ng/mL)
State just the number; it will be interpreted in ng/mL.

Notebook: CCN(CC)CCOC(=O)C(C)c1ccc(CC(C)C)cc1 (stereo not shown) , Cmax read as 0.119

* * *

ASSAY SUMMARY: Phase 1 clinical study: plasma pharmacokinetics of prodrug and ibuprofen
Assay type: in vivo, human
EXPERIMENTAL PARAMETERS: human, plasma, topical or ocular, 70 mg, Day 1; 70 mg topical; read-out: prodrug AUC0-12, geometric mean
MEASUREMENT NAME: AUC0-12
# number then unit; no other words

Notebook: CCN(CC)CCOC(=O)C(C)c1ccc(CC(C)C)cc1.Cl (stereo not shown) , AUC0-12 read as 0.913 ng·h/mL

* * *

ASSAY SUMMARY: Phase 1 clinical study: plasma pharmacokinetics of prodrug and ibuprofen
Format: in vivo, human
EXPERIMENTAL PARAMETERS: human, plasma, topical or ocular, 70 mg, Day 12; 70 mg b.i.d. topical; read-out: prodrug Tmax, median (range)
MEASUREMENT NAME: Tmax (h)
State just the number; it will be interpreted in h.

Notebook: CCN(CC)CCOC(=O)C(C)c1ccc(CC(C)C)cc1 (stereo not shown) , Tmax read as 3.5
